system_under_test: Drosophila OR85b (Drosophila melanogaster, UniProt Q9VHQ7)
Construct: expressed in transfected cells
Sequence (Q9VHQ7 whole entry, one chain of several): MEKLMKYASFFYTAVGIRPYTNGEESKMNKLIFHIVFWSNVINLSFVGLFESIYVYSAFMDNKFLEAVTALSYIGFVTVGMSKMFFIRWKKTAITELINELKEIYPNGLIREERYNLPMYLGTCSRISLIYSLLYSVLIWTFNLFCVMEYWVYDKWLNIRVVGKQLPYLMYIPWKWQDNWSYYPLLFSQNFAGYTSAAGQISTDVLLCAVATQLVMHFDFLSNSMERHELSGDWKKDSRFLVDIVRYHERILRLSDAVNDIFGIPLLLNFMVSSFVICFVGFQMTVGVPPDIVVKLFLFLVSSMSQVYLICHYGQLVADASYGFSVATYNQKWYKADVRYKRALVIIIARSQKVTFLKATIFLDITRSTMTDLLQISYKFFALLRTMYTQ
experiment_notes: Calcium ion fluorescence (GCaMP6) assay, OR85b stable HEK293 cell line
Assay type: cell-based
applied_conditions: ligand concentration 100 (unit not given); 0.05 threshold, values below shown as 0
property_name: DF norm AVERAGE OR85b
Answer using only a numeral; do not append any unit.

Query: Which measured DF norm AVERAGE OR85b value corresponds to Cc1ccccc1 [toluene] ?
Reply: 0.1125

====

system_under_test: Drosophila OR47a (Drosophila melanogaster)
Construct: expressed in transfected cells
Sequence (P81921 1-385): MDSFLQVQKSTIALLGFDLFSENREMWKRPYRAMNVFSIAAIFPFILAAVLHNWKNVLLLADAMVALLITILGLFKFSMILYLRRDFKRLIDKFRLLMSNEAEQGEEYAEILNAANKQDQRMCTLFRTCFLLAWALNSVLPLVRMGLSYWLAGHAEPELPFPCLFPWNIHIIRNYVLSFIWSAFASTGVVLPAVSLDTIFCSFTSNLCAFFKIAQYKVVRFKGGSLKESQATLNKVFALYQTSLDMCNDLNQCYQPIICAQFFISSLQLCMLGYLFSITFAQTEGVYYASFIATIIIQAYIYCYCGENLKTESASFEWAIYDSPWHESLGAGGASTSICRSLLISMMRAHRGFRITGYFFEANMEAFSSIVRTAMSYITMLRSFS
Sequence (Q9VNB5 1-486 partner): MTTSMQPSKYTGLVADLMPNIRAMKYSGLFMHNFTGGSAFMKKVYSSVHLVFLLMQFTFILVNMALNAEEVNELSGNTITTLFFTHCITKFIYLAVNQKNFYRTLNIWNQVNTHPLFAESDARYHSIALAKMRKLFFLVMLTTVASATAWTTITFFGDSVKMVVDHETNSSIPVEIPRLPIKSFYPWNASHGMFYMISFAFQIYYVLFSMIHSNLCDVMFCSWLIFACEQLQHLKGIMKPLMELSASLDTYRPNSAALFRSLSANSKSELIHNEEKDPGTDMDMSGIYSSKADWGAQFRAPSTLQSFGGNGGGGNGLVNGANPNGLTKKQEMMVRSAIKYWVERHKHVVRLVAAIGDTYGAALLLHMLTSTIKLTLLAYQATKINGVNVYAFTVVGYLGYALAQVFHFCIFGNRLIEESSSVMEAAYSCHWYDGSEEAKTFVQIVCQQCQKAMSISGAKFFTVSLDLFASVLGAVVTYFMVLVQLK
experiment_notes: Calcium ion fluorescence (GCaMP6) assay, OR47a stable HEK293 cell line
Format: cell-based
applied_conditions: EC50, AVERAGE of replicate fits, the 14th table; arithmetic average, N 5
property_name: EC50 (µM)
Respond with the bare value in µM.

Query: Given the entry CCCCCOC(C)=O [pentyl acetate] , report its measured EC50.
Reply: 2.41

====

Quick reference for DF norm AVERAGE OR85b among some compounds
system_under_test: Drosophila OR85b (Drosophila melanogaster, UniProt Q9VHQ7)
Construct: expressed in transfected cells
experiment_notes: Calcium ion fluorescence (GCaMP6) assay, OR85b stable HEK293 cell line
Assay type: cell-based
applied_conditions: concentration 10; normalized fluorescence change, values below 0.05 threshold given as 0
Answer as a number with no unit attached.

Query: Entry under review: Cc1ccc(O)cc1 [4-methylphenol] . Reported DF norm AVERAGE OR85b?
Reply: 0

The reported numbers originate from paper PMC10709440.
